Tested on: MIA PaCa-2
Experiment notes: Antiproliferative activity against human MIA PaCa-2 cells harboring KRAS G12C mutant assessed as inhibition of cell proliferation incubated for 7 days by CellTiterGlo-3D proliferation assay
Assay type: functional, cell-based
Experimental conditions: MIA PaCa-2, 168 h
pIC50: −log10 of the molar value.
Endpoint: pIC50

INSERT INTO measurements (compound, endpoint, measurement) VALUES
  ('COc1cc2nc(C)nc(NC(C)c3cc(N)cc(C(F)(F)F)c3)c2cc1C1CCN(C(C)=O)CC1 (centres undefined)', 'pIC50', 7.31),
  ('COc1cc2nc(C)nc(N[C@H](C)c3cc(N)cc(C(F)(F)F)c3)c2cc1O[C@H]1CCOC1', 'pIC50', 7.61),
  ('COc1cc2nc(C)nc(N[C@H](C)c3cc(N)cc(C(F)(F)F)c3)c2cc1C1CCN(C(=O)CCCCCC(=O)N[C@H](C(=O)N2C[C@@H](O)C[C@H]2C(=O)N[C@@H](C)c2ccc(-c3scnc3C)cc2)C(C)(C)C)CC1', 'pIC50', 6.02),
  ('COc1cc2nc(C)nc(N[C@H](C)c3cc(N)cc(C(F)(F)F)c3)c2cc1C1CCN(C(=O)CCCCCC(=O)N[C@H](C(=O)N2C[C@H](O)C[C@H]2C(=O)N[C@@H](C)c2ccc(-c3scnc3C)cc2)C(C)(C)C)CC1', 'pIC50', 8.00);

* * *

Experiment notes: Half-life in BALB/c mouse at 10 mg/kg, ip measured upto 24 hrs by LC-MS/MS analysis
Type: ADME, organism-based
Experimental conditions: in vivo
Endpoint: half-life (h)

INSERT INTO assay_data (chemical_structure, measurement) VALUES
  ('COc1cc2nc(C)nc(N[C@H](C)c3cc(N)cc(C(F)(F)F)c3)c2cc1C1CCN(C(=O)CCCCCC(=O)N[C@H](C(=O)N2C[C@H](O)C[C@H]2C(=O)N[C@@H](C)c2ccc(-c3scnc3C)cc2)C(C)(C)C)CC1', 9.69);

* * *

Target of assay: von Hippel-Lindau disease tumor suppressor/Son of sevenless homolog 1 (Homo sapiens) (UniProt Q07889+P40337)
Sequence (P40337 whole entry, looked up): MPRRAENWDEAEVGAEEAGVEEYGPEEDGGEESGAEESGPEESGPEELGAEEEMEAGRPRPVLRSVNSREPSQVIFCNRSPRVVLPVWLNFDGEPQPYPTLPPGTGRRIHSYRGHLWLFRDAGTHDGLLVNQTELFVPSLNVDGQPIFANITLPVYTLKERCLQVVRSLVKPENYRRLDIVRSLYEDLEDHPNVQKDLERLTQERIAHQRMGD
Sequence (Q07889 whole entry, looked up): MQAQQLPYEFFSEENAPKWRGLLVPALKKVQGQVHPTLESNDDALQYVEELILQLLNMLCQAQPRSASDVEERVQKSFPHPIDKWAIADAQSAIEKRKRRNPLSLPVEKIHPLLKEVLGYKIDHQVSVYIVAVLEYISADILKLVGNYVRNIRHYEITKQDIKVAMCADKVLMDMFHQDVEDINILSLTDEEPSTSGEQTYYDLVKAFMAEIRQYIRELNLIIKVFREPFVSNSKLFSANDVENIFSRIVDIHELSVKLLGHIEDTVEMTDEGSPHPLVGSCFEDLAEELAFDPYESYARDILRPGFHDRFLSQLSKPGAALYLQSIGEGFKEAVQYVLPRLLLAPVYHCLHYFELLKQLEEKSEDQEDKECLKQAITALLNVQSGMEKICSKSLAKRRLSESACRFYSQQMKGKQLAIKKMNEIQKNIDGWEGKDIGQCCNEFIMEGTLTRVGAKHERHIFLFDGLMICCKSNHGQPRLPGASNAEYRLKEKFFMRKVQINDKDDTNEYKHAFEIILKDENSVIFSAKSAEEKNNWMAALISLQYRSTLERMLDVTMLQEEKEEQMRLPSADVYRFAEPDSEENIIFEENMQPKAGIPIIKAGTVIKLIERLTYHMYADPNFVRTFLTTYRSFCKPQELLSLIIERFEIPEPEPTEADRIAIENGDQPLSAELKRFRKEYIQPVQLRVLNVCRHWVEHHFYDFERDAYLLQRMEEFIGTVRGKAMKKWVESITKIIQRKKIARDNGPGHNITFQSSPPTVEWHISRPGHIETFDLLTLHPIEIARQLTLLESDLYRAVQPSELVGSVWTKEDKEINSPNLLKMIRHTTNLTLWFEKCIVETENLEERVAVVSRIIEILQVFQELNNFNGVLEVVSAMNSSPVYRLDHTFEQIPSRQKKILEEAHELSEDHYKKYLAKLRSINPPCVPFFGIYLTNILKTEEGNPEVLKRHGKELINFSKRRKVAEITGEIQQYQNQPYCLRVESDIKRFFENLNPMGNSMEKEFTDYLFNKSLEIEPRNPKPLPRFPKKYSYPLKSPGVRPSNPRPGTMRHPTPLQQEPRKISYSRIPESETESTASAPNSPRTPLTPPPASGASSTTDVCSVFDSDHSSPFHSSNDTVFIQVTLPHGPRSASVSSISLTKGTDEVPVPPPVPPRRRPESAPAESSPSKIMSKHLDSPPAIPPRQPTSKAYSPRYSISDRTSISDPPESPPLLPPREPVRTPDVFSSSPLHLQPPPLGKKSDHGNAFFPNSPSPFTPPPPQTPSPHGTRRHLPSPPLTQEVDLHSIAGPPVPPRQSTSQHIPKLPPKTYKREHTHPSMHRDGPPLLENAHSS
Experiment notes: PROTAC activity at VHL/SOS1 in human NCI-H358 cells assessed as induction of SOS1 protein degradation at 1.0 uM incubated for 24 hrs by Immunoblot analysis relative to control
Format: cell-based
Endpoint: Activity (%)

INSERT INTO results (chemical_structure, quantity_unit, measurement) VALUES
  ('COc1cc2nc(C)nc(N[C@H](C)c3cc(N)cc(C(F)(F)F)c3)c2cc1C1CCN(C(=O)C2CN(CCC(=O)N[C@H](C(=O)N3C[C@H](O)C[C@H]3C(=O)N[C@@H](C)c3ccc(-c4scnc4C)cc3)C(C)(C)C)C2)CC1', '%', 11.2),
  ('COc1cc2nc(C)nc(N[C@H](C)c3cc(N)cc(C(F)(F)F)c3)c2cc1C1CCN(C(=O)CCCCC(=O)N[C@H](C(=O)N2C[C@H](O)C[C@H]2C(=O)N[C@@H](C)c2ccc(-c3scnc3C)cc2)C(C)(C)C)CC1', '%', 37),
  ('COc1cc2nc(C)nc(N[C@H](C)c3cc(N)cc(C(F)(F)F)c3)c2cc1C1CCN(C(=O)CCCCCCCC(=O)N[C@H](C(=O)N2C[C@H](O)C[C@H]2C(=O)N[C@@H](C)c2ccc(-c3scnc3C)cc2)C(C)(C)C)CC1', '%', 80.2);
